- Tested on: DU145 cells
- protocol notes: CellTiter-Glo Luminescent Cell Viability Assay, DU145
- Format: cell-based
- study conditions: Homo sapiens, DU-145; 48 hours incubation; mean of at least two determinations; read-out: DU145 IC50 μM (antiproliferative activity)
Counter-ions that a name gives are not always drawn.
observed property: IC50 (µM)

Below: 2 molecules and their reported IC50.
Entry CCOC(=O)/C=C/CNCCCCN1c2ccccc2CCc2ccc(Cl)cc21.O=C(O)/C=C\C(=O)O [Compound 12, maleate] ; IC50 = 6.81

# IC50 of CCOC(=O)/C=C/CNCCCCN1c2cc(Cl)ccc2C(=O)N(C)c2ccccc21 [Compound 42, maleate] = 9.18

a. CONC(=O)/C=C/CN(C)CCCCN1c2ccccc2CCc2ccc(Cl)cc21 [Compound 85, maleate]
b. CCOC(=O)/C=C/CCNCCCN1c2ccccc2CCc2ccc(Cl)cc21 [Compound 5, maleate]
c. CCOC(=O)/C=C/CNCCCCN1c2ccccc2C(=O)N(Cc2ccccc2)c2ccc(Cl)cc21 [Compound 45, maleate]
Ask: Descending sort on IC50 required. # output: labels, in the requested order
Result: a, b, c
(a: 11.3 µM, b: 7.68 µM, c: 4.97 µM)
